Measured values drawn from patent US7329737 for this set.

Target: T1, hK1 (human tissue kallikrein 1), recombinant (human, UniProt P06870 25-262)
T1 construct: Expressed in P. pastoris from KLK1 cDNA and purified; enzymatically active; also called KLK1; Recombinant (Pichia) Kallikrein
Assay: SPR
experimental readout: pKd
Just so you know, pKd here is -log10 of the concentration in molar units; reply with that number alone.

1) M0097-D04 (Fab, V domains shown) VH: EVQLLESGGGLVQPGGSLRLSCAASGFTFSHYFMHWVRQAPGKGLEWVSYISSSGGLTGYADSVKGRFTISRDNSKNTLYLQMNSLRAEDTAVYYCARRGPVYYYDSSGSHSAFDIWGQGTMVTVS VL: AQSELTQPPSASGTPGQRVTISCSGSSSNIGSNYVYWYQQLPGMAPKLLIYRNNQRPSGVPDRFSGSKSGTSASLAISGLRSEDEADYYCAAWDDSMSGVVFGGGTKLTVLS
8.08

// query Item M0132-C01 (Fab, V domains shown) VH: EVQLLESGGGLVQPGGSLRLSCAASGFTFSRYLMWWVRQAPGKGLEWVSVIGPSGGWTRYADSVKGRFTISRDNSKNTLYLQMNSLRAEDTAVYYCARHPGDYWGQGTLVTVSS VL: AQSALTQPRSVSGSPGQSVTISCTGTGSNIDGYNYVSWYQQYPGNAPKLIIYDVGKRPSGVPNRFSGSKSGNTASLTISGLQAEDEADYYCCSYAGSYSYVFGVGTKVTVLG has what recorded pKd?
// result 7.59

// query Bench note: what pKd did M0102-A04 (Fab, V domains shown) VH: EVQLLESGGGLVQPGGSLRLSCAASGFTFSHYVMNWVRQAPGKGLEWVSRIYPSGGVTVYADSVKGRFTISRDNSKNTLYLQMNSLRAEDTAVYYCARGYGMDVWGQGTMVTVSS VL: AQSELTQPPSASGTPGQRVTISCSGSSSNIGSNYVYWYQQYPGTVPKLLIHSNNQRPSGVPDRFSGPKSGTSASLAISGLRSEDEADYYCATWDNSLSAWVFGGGTKLTVLR show?
// result 7.88

// query Recorded pKd for M0130-B02 (Fab, V domains shown) VH: EVQLLESGGGLVQPGGSLRLSCAASGFTFSNYSMVWVRQAPGKGLEWVSRIYSSGGSTHYADSVKGRFTISRDNSKNTLYLQMNSLRAEDTAVYYCARVGVWYGMDVWGQGTTVTVSS VL: AQSALTQPASVSGSPGQSITISCTDTSGNVGSYNLVSWYQQHPDKAPKLMIFEVSRRPSGVSDRFSGSKSGNTASLTISGLQAEDEADYYCCSYAGSNTYVFGTGTKVTVLG , please?
// result 8.11

// query Which pKd is listed for M0102-C12 (Fab, V domains shown) VH: EVQLLESGGGLVQPGGSLRLSCAASGFTFSHYLMGWVRQAPGKGLEWVSVIWPSGGITKYADSVKGRFTISRDNSKNTLYLQMNSLRAEDTAVYYCARGNGGFDSWGQGTLVTVSS VL: DIQMTQSPSSLSASVGDRVTITCRASQGISNYLAWYQQKPGKVPKLLIYAASTLQSGVPSRFSGSGSGTDFTLTISSLQPEDVATYYCQKYNSAPWTFGQGTKVEIKR ?
// result 7.45
